B1: NETO1 (parent)
chain: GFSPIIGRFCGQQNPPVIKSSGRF

- Variants of: B1
- assay_info: protein stability index of a GFP-peptide fusion (GPS, HEK-293T) (PSI 1-6); higher = more stable;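 note: lentivirally expressed fusions sorted by FACS into six bins by GFP to DsRed ratio, PSI derived from sequencing read proportions per bin multiplied by bin number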
- protocol_conditions: c terminus: a fixed tail appended
measurement_name: protein stability index

construct_sequence	measurement
GFSPIIGRFCYQQNPPVIKSSGRF	1.89
GFSPIIERFCGQQNPPVIKSSGRF	2.39
GFSPIIGKFCGQQNPPVIKSSGRF	2.19
GFSPIIGRFCGQQNPPVIGSSGRF	3.23
GFSPIIGRFCGQQNPPVIKSSGDF	2.3
RFSPIIGRFCGQQNPPVIKSSGRF	1.98
GFSPIIGRFCGEQNPPVIKSSGRF	2.35
GFSPIIGRFCGMQNPPVIKSSGRF	1.94
GFSPIIGRFCGQQNPPVINSSGRF	1.65
GFSPIPGRFCGQQNPPVIKSSGRF	2.95
GFSPIIGRFCGQQNPPVIKDSGRF	1.55
GFSPIIGAFCGQQNPPVIKSSGRF	2.72
GFSPIIGRFCGQQNPPVIKSSGIF	1.65
GFSPIIIRFCGQQNPPVIKSSGRF	2.88
GFSPIMGRFCGQQNPPVIKSSGRF	2.05
GFSPIIGRFCGQQNPIVIKSSGRF	1.86
GFSHIIGRFCGQQNPPVIKSSGRF	2.05
GFSPIIGRFCGQQNPPVIKSSERF	1.63
GFSPIIGRFCRQQNPPVIKSSGRF	1.63
GFSPIIGRFCKQQNPPVIKSSGRF	1.91
GFSPIIGRFCGFQNPPVIKSSGRF	1.8
GFSTIIGRFCGQQNPPVIKSSGRF	1.26
GFSPIIGRFCGQQGPPVIKSSGRF	2.19
GFSPIWGRFCGQQNPPVIKSSGRF	2.68
GTSPIIGRFCGQQNPPVIKSSGRF	2.46
GFSPIIGRFCGQRNPPVIKSSGRF	2.64
GFSPIIGRFCGQQNPPVIKHSGRF	2.16
GFSPIIGRFCGQQNPKVIKSSGRF	2.03
GFSPIIGPFCGQQNPPVIKSSGRF	2.61
GFSPIIGRFWGQQNPPVIKSSGRF	2.3
GFSPIIGRFCGQQNIPVIKSSGRF	2.1
GFSPIIGCFCGQQNPPVIKSSGRF	1.61
GFSPIIGRFCGQQNPPVIVSSGRF	1.48
GFSPIIGRFAGQQNPPVIKSSGRF	3.07
GFSPIIGRFCGQQNPPVIKSRGRF	2.26
GFSPIIGRFCGQQNPPVIKSSGRQ	3
GFSPIIGRFCGQQNPEVIKSSGRF	2.58
GFSPIIGRFCGQQNPPVIKASGRF	2.67
GPSPIIGRFCGQQNPPVIKSSGRF	2.5
GGSPIIGRFCGQQNPPVIKSSGRF	2.54
GFSPIIGRFCGQQQPPVIKSSGRF	3.08
GFSPIINRFCGQQNPPVIKSSGRF	2.38
GFIPIIGRFCGQQNPPVIKSSGRF	1.71
GFSPFIGRFCGQQNPPVIKSSGRF	1.79
GFSPIIGRFCGQQNPPVIKSSGRI	2.23
GFSPIIGRFCGQQNPPVIKSGGRF	2.53
